As an illustration, consider measured MIC for compounds on SPNE 9912.
Numbers only, in µg/mL.

COC(=O)NC[C@H]1CN(c2ccc(N3C=CC(=O)CC3)c(F)c2)C(=O)O1: 0.5
O=C1C=CN(c2c(F)cc(N3C[C@H](CNC(=O)C(F)F)OC3=O)cc2F)CC1: 0.25

For every record below, what is its MIC?
1. CC(=O)NC[C@H]1CN(c2ccc(N3C=CC(=O)CC3)c(F)c2)C(=O)O1
2. O=C1C=CN(c2ccc(N3C[C@H](Cn4ccnn4)OC3=O)cc2F)CC1

1: 0.25; 2: 0.25

---

As an illustration, consider measured MIC for compounds on SPNE 9912.
One number for each entry, in µg/mL.

Consider the worked cases shown below.
O=C1C=CN(c2ccc(N3C[C@H](CNC(=S)C(F)F)OC3=O)cc2)CC1 [Example 10]: 0.25
O=C1C=CN(c2ccc(N3C[C@H](Cn4ccnn4)OC3=O)cc2)CC1 [Example 17]: 1
O=C1C=CN(c2ccc(N3C[C@H](CNC(=O)C(F)F)OC3=O)cc2)CC1 [Example 11]: 0.5
O=C1C=CN(c2ccc(N3C[C@H](CNC(=O)C(F)F)OC3=O)cc2F)CC1 [Example 3]: 0.25
CC(=O)NC[C@H]1CN(c2ccc(N3C=CC(=O)CC3)cc2)C(=O)O1 [Example 9]: 0.5
O=C1C=CN(c2ccc(N3C[C@H](CNC(=O)C(Cl)Cl)OC3=O)cc2F)CC1 [Example 5]: 0.25

For every record below, what is its MIC?
1. CC(=O)NC[C@H]1CN(c2cc(F)c(N3C=CC(=O)CC3)c(F)c2)C(=O)O1 [Example 2]
2. O=C1C=CN(c2ccc(N3C[C@H](CNC(=O)C(Cl)Cl)OC3=O)cc2)CC1 [Example 8]

1: 0.5; 2: 0.25
